Give abundance fitness for every item shown.
B1: Segment polarity protein dishevelled homolog DVL-3, residues 2 to 81; numbered along this chain, Q92997 (parent)
chain: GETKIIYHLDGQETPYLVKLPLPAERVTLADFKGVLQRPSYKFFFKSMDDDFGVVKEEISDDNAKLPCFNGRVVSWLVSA

# Variants of: B1
# testDetails: abundance fitness (aPCA) (normalised: wild type 0, dead -1); higher = more abundant; growth selection in yeast, the domain comes from the species named
# protocolConditions: Homo sapiens

Per the record, K46R has abundance fitness of -0.08

Per the record, K19D has abundance fitness of -0.547

Per the record, F69T has abundance fitness of -0.352

Per the record, E57N has abundance fitness of -0.276

Per the record, F43D has abundance fitness of -0.64

Per the record, W76M has abundance fitness of -0.678

Per the record, F43A has abundance fitness of -0.552

Per the record, F32Y has abundance fitness of -0.544

Per the record, S79Q has abundance fitness of -0.248

Per the record, E58Q has abundance fitness of -0.513

Per the record, Q37F has abundance fitness of -0.433

Per the record, S47F has abundance fitness of 0.011

Per the record, V55Y has abundance fitness of 0.2

Per the record, G34T has abundance fitness of -0.016

Per the record, K56Q has abundance fitness of -0.285

Per the record, D50Q has abundance fitness of -0.041

Per the record, C68N has abundance fitness of -0.117

Per the record, F44E has abundance fitness of -0.683

Per the record, D61Q has abundance fitness of -0.082

Per the record, G71S has abundance fitness of -0.512

Per the record, S79Y has abundance fitness of -0.864

Per the record, F69A has abundance fitness of -0.613

Per the record, V74N has abundance fitness of -0.511

Per the record, F45K has abundance fitness of -0.934

Per the record, G71R has abundance fitness of -0.895

Per the record, M48N has abundance fitness of 0.567

Per the record, N70D has abundance fitness of 0.009

Per the record, A64S has abundance fitness of -0.376

Per the record, T28C has abundance fitness of -0.793

Per the record, F45P has abundance fitness of -0.581

Per the record, V55P has abundance fitness of -0.895

Per the record, L77H has abundance fitness of -0.536

Per the record, R38K has abundance fitness of 0.147

Per the record, A24Q has abundance fitness of -0.074

Per the record, L77G has abundance fitness of -0.572

Per the record, K33F has abundance fitness of -0.661

Per the record, Q37T has abundance fitness of -0.067

Per the record, S75T has abundance fitness of -0.519

Per the record, D61F has abundance fitness of -0.52

Per the record, S47P has abundance fitness of -0.675

Per the record, P67L has abundance fitness of -0.94

Per the record, W76I has abundance fitness of -1.4

Per the record, S47Q has abundance fitness of -0.212

Per the record, G53F has abundance fitness of -0.362

Per the record, D31W has abundance fitness of -0.618

Per the record, T28P has abundance fitness of -0.555

Measured values drawn from the Human Domainome abundance scans (Beltran et al. 2025) for this set.
